Assayed system: T1, c-Met-Fc chimera protein (UniProt P08581 25-932, limits assumed)
T1 construct: Captured on the SPR chip by an anti-IgG antibody; not shown: Fc part
T1 sequence (P08581 25-932 limits assumed, change not shown): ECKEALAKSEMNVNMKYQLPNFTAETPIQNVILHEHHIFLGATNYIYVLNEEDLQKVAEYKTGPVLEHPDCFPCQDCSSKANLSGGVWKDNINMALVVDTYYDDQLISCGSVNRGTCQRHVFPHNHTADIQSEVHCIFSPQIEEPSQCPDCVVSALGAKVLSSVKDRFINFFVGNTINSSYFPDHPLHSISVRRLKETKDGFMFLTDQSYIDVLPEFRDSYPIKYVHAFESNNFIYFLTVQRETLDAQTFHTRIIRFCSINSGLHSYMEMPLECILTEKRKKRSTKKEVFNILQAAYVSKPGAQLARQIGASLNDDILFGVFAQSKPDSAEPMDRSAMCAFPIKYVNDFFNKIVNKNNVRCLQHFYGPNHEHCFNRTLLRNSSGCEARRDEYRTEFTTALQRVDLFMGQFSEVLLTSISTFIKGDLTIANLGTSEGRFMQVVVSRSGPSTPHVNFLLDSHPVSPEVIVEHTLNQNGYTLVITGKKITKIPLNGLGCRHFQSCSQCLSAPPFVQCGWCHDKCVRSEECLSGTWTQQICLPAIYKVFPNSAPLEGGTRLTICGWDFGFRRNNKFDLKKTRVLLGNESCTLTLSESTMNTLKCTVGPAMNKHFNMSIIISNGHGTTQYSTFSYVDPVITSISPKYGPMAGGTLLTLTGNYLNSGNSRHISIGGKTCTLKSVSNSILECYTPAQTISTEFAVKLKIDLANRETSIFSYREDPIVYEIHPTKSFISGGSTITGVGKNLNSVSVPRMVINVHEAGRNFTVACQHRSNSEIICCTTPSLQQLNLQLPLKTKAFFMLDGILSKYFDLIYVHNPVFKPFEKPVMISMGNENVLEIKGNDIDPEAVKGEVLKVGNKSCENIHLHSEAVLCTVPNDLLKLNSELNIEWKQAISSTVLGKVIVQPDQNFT
Assay name: SPR presumed (Biacore as in 9-1; method not given), c-Met-Fc on chip
Bridges are numbered along the chain shown (N, C = ends). Where no end group is shown, it is not given here. [ ]: non-standard residue; d: D form. NMeR = CN[C@@H](CCCNC(=N)N)C(=O)O; NMeC = CN[C@@H](CS)C(=O)O
Readout kind: kon (M⁻¹ s⁻¹)
// units = M⁻¹ s⁻¹; emit number, no label

Record excerpt, results attached:
| Binder | kon (M⁻¹ s⁻¹) |
| --- | --- |
| {CH2CO}-YRQFNRRTHEVWNLD[NMeC]G (thioether N-16 (inferred)) [N16, N-methylated D4-3 peptide] | 980000 |
| {CH2CO}-YRQFNRRTHEVWNLDCG (thioether N-16; not fully specified, also called D4-3 peptide; D4-3 Monomer) [D4-3] | 1.3e+06 |
| {CH2CO}-YRQFN[NMeR]RTHEVWNLD[NMeC]G (thioether N-16, also called NMe (N6 + N16); N-methylated D4-3) [D4-3NMe] | 390000 |

// switching to the query binder
Reported kon for {CH2CO}-YRQFN[NMeR]RTHEVWNLDCG (thioether N-16) [D4-3-N6] : what is it?
120000
